Each entry below carries its measured Kd, system: Guanine nucleotide-binding protein G(i) subunit alpha-2 (Homo sapiens, UniProt P04899). Note: in the data inactive means no Kd found up to 30 µM.
Sequence (P04899 whole entry): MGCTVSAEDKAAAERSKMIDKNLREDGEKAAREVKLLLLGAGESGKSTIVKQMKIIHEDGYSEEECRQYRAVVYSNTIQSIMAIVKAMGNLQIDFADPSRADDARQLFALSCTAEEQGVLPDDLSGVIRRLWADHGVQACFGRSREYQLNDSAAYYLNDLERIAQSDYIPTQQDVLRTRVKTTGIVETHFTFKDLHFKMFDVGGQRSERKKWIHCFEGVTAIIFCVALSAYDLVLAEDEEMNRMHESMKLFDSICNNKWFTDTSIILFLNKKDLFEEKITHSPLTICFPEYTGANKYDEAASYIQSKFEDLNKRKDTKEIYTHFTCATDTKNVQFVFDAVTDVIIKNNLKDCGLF
Activity calls are given as the source filed them.
attribute_measured: Kd

> print(dat)
                                smiles.code                           target.of.assay             reading
1    O=C(NC[C@H](O)CO)c1ccncc1Nc1ccc(I)cc1F  Guanine nucleotide-binding protein G(i) subunit alpha-2 (Homo sapiens, UniProt P04899)  > 30 µM (inactive)
2  COc1cc2ncnc3c2cc1OCCCCCN(C)Cc1ccc(Br)cc1N3  Guanine nucleotide-binding protein G(i) subunit alpha-2 (Homo sapiens, UniProt P04899)  > 30 µM (inactive)
3  S=C(NCc1ccc2c(c1)OCO2)N1CCN(c2ncnc3c2oc2ccccc23)CC1  Guanine nucleotide-binding protein G(i) subunit alpha-2 (Homo sapiens, UniProt P04899)  > 30 µM (inactive)
4  CC1(C)CNc2cc(NC(=O)c3cccnc3NCc3ccncc3)ccc21  Guanine nucleotide-binding protein G(i) subunit alpha-2 (Homo sapiens, UniProt P04899)  > 30 µM (inactive)
5  COCCN1CCN(Cc2ccc(-c3n[nH]c4c3C(=O)c3c(NC(=O)NN5CCOCC5)cccc3-4)cc2)CC1  Guanine nucleotide-binding protein G(i) subunit alpha-2 (Homo sapiens, UniProt P04899)  > 30 µM (inactive)
6  C#Cc1cccc(Nc2ncnc3cc4c(cc23)OCCOCCOCCO4)c1  Guanine nucleotide-binding protein G(i) subunit alpha-2 (Homo sapiens, UniProt P04899)  > 30 µM (inactive)
7  CCc1cc2c(cc1N1CCC(N3CCOCC3)CC1)C(C)(C)c1[nH]c3cc(C#N)ccc3c1C2=O  Guanine nucleotide-binding protein G(i) subunit alpha-2 (Homo sapiens, UniProt P04899)  > 30 µM (inactive)
8  CCN1CCN(Cc2ccc(Nc3ncc(F)c(-c4cc(F)c5nc(C)n(C(C)C)c5c4)n3)nc2)CC1  Guanine nucleotide-binding protein G(i) subunit alpha-2 (Homo sapiens, UniProt P04899)  > 30 µM (inactive)

* * *

molecular target: Serine/threonine-protein kinase TAO1 (Homo sapiens, UniProt Q7L7X3); note: in the data inactive means no Kd found up to 30 µM
Sequence (Q7L7X3 whole entry): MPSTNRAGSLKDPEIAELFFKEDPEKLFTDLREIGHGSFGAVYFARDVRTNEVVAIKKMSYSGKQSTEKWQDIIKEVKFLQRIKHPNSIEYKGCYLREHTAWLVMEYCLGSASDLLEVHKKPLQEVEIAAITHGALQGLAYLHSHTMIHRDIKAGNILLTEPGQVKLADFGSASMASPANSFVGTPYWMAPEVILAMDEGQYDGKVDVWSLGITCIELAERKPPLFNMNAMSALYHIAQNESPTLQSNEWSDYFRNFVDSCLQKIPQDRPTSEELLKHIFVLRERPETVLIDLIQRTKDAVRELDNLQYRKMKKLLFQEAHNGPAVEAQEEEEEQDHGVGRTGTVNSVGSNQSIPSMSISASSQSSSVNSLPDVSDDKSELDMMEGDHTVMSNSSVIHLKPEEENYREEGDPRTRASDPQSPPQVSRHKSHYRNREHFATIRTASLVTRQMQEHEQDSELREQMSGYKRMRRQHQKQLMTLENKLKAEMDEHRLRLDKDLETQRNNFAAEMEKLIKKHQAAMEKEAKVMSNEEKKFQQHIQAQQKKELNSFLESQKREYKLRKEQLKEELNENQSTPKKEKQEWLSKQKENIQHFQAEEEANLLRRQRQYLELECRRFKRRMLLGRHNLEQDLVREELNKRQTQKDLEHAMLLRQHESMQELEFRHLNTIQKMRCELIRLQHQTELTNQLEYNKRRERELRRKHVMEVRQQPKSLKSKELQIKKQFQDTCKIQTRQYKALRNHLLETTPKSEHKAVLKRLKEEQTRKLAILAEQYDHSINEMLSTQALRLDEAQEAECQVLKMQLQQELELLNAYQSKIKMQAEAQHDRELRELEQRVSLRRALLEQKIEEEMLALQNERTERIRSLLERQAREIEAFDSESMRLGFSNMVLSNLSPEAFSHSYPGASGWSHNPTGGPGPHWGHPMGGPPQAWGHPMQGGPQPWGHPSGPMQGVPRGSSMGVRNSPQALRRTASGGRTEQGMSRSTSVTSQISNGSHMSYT
Active and inactive are the calls of the source.
Outcomes: 1 for active, 0 for inactive

> print(dat)
                                    compound  assigned.category
 1  O=C(Nc1ccc(OC(F)(F)F)cc1)c1sccc1NCc1ccnc2ccccc12 [OSI-930]                  0
 2  O=S(=O)(c1cccc2c(O)nccc12)N1CCCNCC1 [HYDROXYFASUDIL]                  0
 3  Cc1cc(C(=O)Nc2cc(Oc3ccc4nc(NC(=O)C5CC5)cn4n3)ccc2C)n(C)n1 [TAK-593]                  0
 4  C=CCN(/C=C1/C(=O)O[C@H](COC)[C@@]2(C)C1=C(O)C(=O)C1=C2[C@H](OC(C)=O)C[C@]2(C)C(=O)CC[C@@H]12)CC=C [SONOLISIB]                  0
 5  COc1cc2ncnc3c2cc1OCCCCCN(C)Cc1ccc(Br)cc1N3 [JNJ-26483327]                  0
 6  COCCN1CCN(Cc2ccc(-c3n[nH]c4c3C(=O)c3c(NC(=O)NN5CCOCC5)cccc3-4)cc2)CC1 [RGB-286638]                  0
 7  FC(F)(F)c1ccc(CNc2ccc(Cc3c[nH]c4ncc(Cl)cc34)cn2)cn1 [PEXIDARTINIB]                  0
 8  Cc1cc(-c2cc(OC(=O)c3ccccc3)ccc2Cl)cc2nnc(Nc3ccc(OCCN4CCCC4)cc3)nc12 [TG100-801]                  0
 9  O=c1[nH]c([C@@H]2CCCN2)nc2c1oc1ccc(Cl)cc12                  0
10  COc1cc2ncnc(Nc3ccc(F)c(Cl)c3)c2cc1NC(=O)/C=C/CN1CCCCC1 [DACOMITINIB ANHYDROUS]                  0
11  C=CC(=O)Nc1cc(Nc2nccc(-c3cn(C)c4ccccc34)n2)c(OC)cc1N(C)CCN(C)C [OSIMERTINIB]                  0
12  NC(=O)c1ccc(N(C(N)=O)c2c(F)cccc2F)nc1-c1ccc(F)cc1F [VX-702]                  0
13  O=C(NOC[C@H](O)CO)c1ccc(F)c(F)c1Nc1ccc(I)cc1F [MIRDAMETINIB]                  0
14  O[C@H]1CC[C@H](Nc2ncc3nc(Nc4c(F)cc(F)cc4F)n([C@H]4CCOC4)c3n2)CC1 [TANZISERTIB]                  0
15  CCOc1ccn(-c2ccc(F)cc2)c(=O)c1C(=O)Nc1ccc(Oc2ccnc(N)c2Cl)c(F)c1 [BMS-777607]                  0
16  CC(C)(O)CC(=O)NCCn1ccc2ncnc(Nc3ccc(Oc4cccc(C(F)(F)F)c4)c(Cl)c3)c21 [TAK-285]                  0
17  COc1cc2ncnc(Nc3ccc(O)cc3)c2cc1OC [WHI-P131]                  0
18  COc1cc(F)c(F)c(Nc2ccc(I)cc2F)c1NS(=O)(=O)C1(C[C@H](O)CO)CC1 [REFAMETINIB]                  0
19  COc1cccc(Nc2ncnn3ccc(CN4CC[C@@H](N)[C@H](O)C4)c23)c1 [BMS-690514]                  0
20  O=C(O)c1ccc2c(c1)nc(Nc1cccc(Cl)c1)c1ccncc12 [SILMITASERTIB]                  1
21  Cc1c(Cn2c(C)nc3c(C(=O)O)cc(N4CCOCC4)cc32)cccc1C(F)(F)F [GSK-2636771]                  0
22  Cn1cc(-c2[nH]c3cc(NC(=O)[C@H](N)C4CCCCC4)cc4c3c2C=NNC4=O)cn1                  0
23  c1cc(OCCN2CCCCC2)cc(-c2n[nH]c3ccc(-c4nc[nH]n4)cc23)c1 [CC-401]                  0
24  O=C(NC[C@H](O)CO)c1ccncc1Nc1ccc(I)cc1F [PIMASERTIB]                  0
25  Cc1ccc(C(=O)Nc2ccc(Oc3cc4cnn(C)c4cc3-c3cn[nH]c3)c(F)c2)c(=O)n1-c1ccc(F)cc1 [MERESTINIB]                  0
26  N#CCNC(=O)c1ccc(-c2ccnc(Nc3ccc(N4CCOCC4)cc3)n2)cc1 [MOMELOTINIB]                  0
27  CC[C@@](C)(Nc1ccnc(-c2c[nH]c3ncccc23)n1)C(=O)NCC(F)(F)F [DECERNOTINIB]                  1
28  NC[C@@](O)(c1ccc(Cl)cc1)c1ccc(-c2cn[nH]c2)cc1 [AT-13148]                  0
29  COc1ccc(-c2ccc3ncc4c(c3c2)n(-c2ccc(N3CCNCC3)c(C(F)(F)F)c2)c(=O)n4C)cn1 [BGT-226 FREE BASE]                  0
30  C[C@@H]1COC(Nc2ccc3ncnc(Nc4ccc(OCc5nccs5)c(Cl)c4)c3c2)=N1 [VARLITINIB]                  0
31  CNC(=O)c1cccc(-c2ccc3c(N4CCOC[C@@H]4C)nc(N4CCOC[C@@H]4C)nc3n2)c1 [VISTUSERTIB]                  0
32  Cc1cc(Nc2nc(N[C@@H](C)c3ncc(F)cn3)ncc2Cl)n[nH]1 [AZD-1480]                  0
